Assay: Acute toxicity in mice (LD50, Behrens Kerber's method)
Conditions: mouse, in vivo, ip; ddy mice, single intraperitoneal administration, 14 days observation
Description: The antitumour-activity and toxicity of various compounds of formula (I) were investigated as indicated below. Each animal of the test group consisting of 5 ddy mice was administered intraperitoneally once with a test compound. […] The LD50 was determined by Behrens Kerber's method.
measurementLabel: LD50 at 336 h (mg/kg)
Supply the numeric figure in mg/kg, leaving out any unit text.

Here's what some known entries look like.
Problem: Specify measured LD50 at 336 h for CO[C@@]12[C@H](COC(N)=O)C3=C(C(=O)C(C)=C(NCCSSc4ccc(NC(C)=O)cc4)C3=O)N1C[C@@H]1N[C@@H]12 [Compound 5] .
Solution: 30

Problem: Specify measured LD50 at 336 h for CO[C@@]12[C@H](COC(N)=O)C3=C(C(=O)C(C)=C(NCCSSC(C)(C)[C@H](N)C(=O)O)C3=O)N1C[C@@H]1N[C@@H]12 [Compound 18] .
Solution: 30

Problem: Specify measured LD50 at 336 h for CO[C@@]12[C@H](COC(N)=O)C3=C(C(=O)C(C)=C(NCCSSc4ccc(N)cc4)C3=O)N1C[C@@H]1N[C@@H]12 [Compound 4] .
Solution: 9

Problem: Specify measured LD50 at 336 h for CO[C@@]12[C@H](COC(N)=O)C3=C(C(=O)C(C)=C(NCCSSc4ccc(Cl)cc4)C3=O)N1C[C@@H]1N[C@@H]12 [Compound 11] .
Solution: 9

Further cases:
Problem: Specify measured LD50 at 336 h for CO[C@@]12[C@H](COC(N)=O)C3=C(C(=O)C(C)=C(NCCSSC[C@H](N)C(=O)O)C3=O)N1C[C@@H]1N[C@@H]12 [Compound 14] .
Solution: 30

----------
Let's look at some compounds and their measured WBC4000 (dosage corresponding to 4000 peripheral leucocytes/mm^3).
tested on: peripheral leucocytes; assay: Effect on the peripheral leucocytes number in Sarcoma 180 bearing mice; format: in vivo; conditions: Sarcoma 180 bearing ddy mice; intraperitoneal 24 hours after implantation; blood 4 days later

Here's what some known entries look like.
Problem: Specify measured WBC4000 (dosage corresponding to 4000 peripheral leucocytes/mm^3) for CO[C@@]12[C@H](COC(N)=O)C3=C(C(=O)C(C)=C(NCCSSc4cccc(N)c4)C3=O)N1C[C@@H]1N[C@@H]12 .
Solution: > 10 mg/kg

Problem: Specify measured WBC4000 (dosage corresponding to 4000 peripheral leucocytes/mm^3) for CO[C@@]12[C@H](COC(N)=O)C3=C(C(=O)C(C)=C(NCCSSc4ccc(Cl)cc4)C3=O)N1C[C@@H]1N[C@@H]12 .
Solution: > 10 mg/kg

Problem: Specify measured WBC4000 (dosage corresponding to 4000 peripheral leucocytes/mm^3) for CO[C@@]12[C@H](COC(N)=O)C3=C(C(=O)C(C)=C(NCCSSc4ccc(N)cc4)C3=O)N1C[C@@H]1N[C@@H]12 .
Solution: > 10 mg/kg

Further cases:
Problem: Specify measured WBC4000 (dosage corresponding to 4000 peripheral leucocytes/mm^3) for COc1ccc(SSCCNC2=C(C)C(=O)C3=C(C2=O)[C@@H](COC(N)=O)[C@@]2(OC)[C@H]4N[C@H]4CN32)cc1 .
Solution: > 10 mg/kg

Problem: Specify measured WBC4000 (dosage corresponding to 4000 peripheral leucocytes/mm^3) for CO[C@@]12[C@H](COC(N)=O)C3=C(C(=O)C(C)=C(NCCSSC[C@H](N)C(=O)NCC(=O)O)C3=O)N1C[C@@H]1N[C@@H]12 .
Solution: 20.5 mg/kg
